This collection of values is drawn from ChEMBL document CHEMBL5576041.

Tested on: NCI-H460
measurement.description: Antiproliferative activity against human NCI-H460 cells assessed as inhibition of cell growth incubated for 24 to 72 hrs by CCK8 assay
Format: functional, cell-based
recorded.metric: pIC50
Schema: pIC50 number; meaning minus log10 of the concentration expressed in molar units.

A selection of reference data follows.
CCCCCCCCCCCC(=O)O[C@@]12C[C@@H](C)[C@]34C=C(C)[C@H](OC(=O)NC5CCCC5)[C@@]3(O)[C@H](O)C(CO)=C[C@H](C4=O)[C@@H]1C2(C)C | 4.75
CCCCCCCCCCCC(=O)O[C@@]12C[C@@H](C)[C@]34C=C(C)[C@H](OC(=O)NCCCC)[C@@]3(O)[C@H](O)C(CO)=C[C@H](C4=O)[C@@H]1C2(C)C | 5.01
CCCCCCCCCCCC(=O)O[C@@]12C[C@@H](C)[C@]34C=C(C)[C@H](OC(=O)NCCCCCCCC)[C@@]3(O)[C@H](O)C(CO)=C[C@H](C4=O)[C@@H]1C2(C)C | 4.84

INPUT: Please report the recorded pIC50 for CCCCCCCCCCCC(=O)O[C@@]12C[C@@H](C)[C@]34C=C(C)[C@H](OC(=O)c5ccc(F)cc5)[C@@]3(O)[C@H](O)C(COC(=O)c3ccc(F)cc3)=C[C@H](C4=O)[C@@H]1C2(C)C .
OUTPUT: 5.27

INPUT: Field request: pIC50 | item: CCCCCCCCCCCC(=O)O[C@@]12C[C@@H](C)[C@]34C=C(C)[C@H](OC(=O)NCCC)[C@@]3(O)[C@H](O)C(CO)=C[C@H](C4=O)[C@@H]1C2(C)C
OUTPUT: 5.07

INPUT: Item CCCCCCCCCCCC(=O)O[C@@]12C[C@@H](C)[C@]34C=C(C)[C@H](OC(=O)c5ccc(F)cc5)[C@@]3(O)[C@H](O)C(CO)=C[C@H](C4=O)[C@@H]1C2(C)C has what recorded pIC50?
OUTPUT: 4.68

INPUT: Return reported pIC50; argument: CCCCCCCCCCCC(=O)O[C@@]12C[C@@H](C)[C@]34C=C(C)[C@H](OCc5ccccc5)[C@@]3(O)[C@H](O)C(CO)=C[C@H](C4=O)[C@@H]1C2(C)C
OUTPUT: 4.63

INPUT: If you can, please state the reported pIC50 value of CCCCCCCCCCCC(=O)O[C@@]12C[C@@H](C)[C@]34C=C(C)[C@H](OC(=O)NCCCCC)[C@@]3(O)[C@H](O)C(CO)=C[C@H](C4=O)[C@@H]1C2(C)C .
OUTPUT: 5.27

INPUT: Give the measured pIC50 of CCCCCCCCCCCC(=O)O[C@@]12C[C@@H](C)[C@]34C=C(C)[C@H](O)[C@@]3(O)[C@H](O)C(COC(=O)c3ccc([N+](=O)[O-])cc3)=C[C@H](C4=O)[C@@H]1C2(C)C .
OUTPUT: 5.59

INPUT: Could you share which pIC50 value was measured for CCCCCCCCCCCC(=O)O[C@@]12C[C@@H](C)[C@]34C=C(C)[C@H](O)[C@@]3(O)[C@H](O)C(COC(=O)c3ccc(F)cc3)=C[C@H](C4=O)[C@@H]1C2(C)C ?
OUTPUT: 5.35

INPUT: Entry CCCCCCCCCCCC(=O)O[C@@]12C[C@@H](C)[C@]34C=C(C)[C@H](OC(=O)c5ccc([N+](=O)[O-])cc5)[C@@]3(O)[C@H](O)C(COC(=O)c3ccc([N+](=O)[O-])cc3)=C[C@H](C4=O)[C@@H]1C2(C)C : reported pIC50 = ?
OUTPUT: 6.00

INPUT: Sample CCCCCCCCCCCC(=O)O[C@@]12C[C@@H](C)[C@]34C=C(C)[C@H](OC(=O)c5ccc(Br)cc5)[C@@]3(O)[C@H](O)C(CO)=C[C@H](C4=O)[C@@H]1C2(C)C — what was its pIC50?
OUTPUT: 5.10

INPUT: For the molecule shown here, CCCCCCCCCCCC(=O)O[C@@]12C[C@@H](C)[C@]34C=C(C)[C@H](OC(=O)NCCCCCC)[C@@]3(O)[C@H](O)C(CO)=C[C@H](C4=O)[C@@H]1C2(C)C , give the reported pIC50.
OUTPUT: 4.54

INPUT: Please look up its pIC50: CCCCCCCCCCCC(=O)O[C@@]12C[C@@H](C)[C@]34C=C(C)[C@H](OCC)[C@@]3(O)[C@H](O)C(CO)=C[C@H](C4=O)[C@@H]1C2(C)C
OUTPUT: 4.34

INPUT: Recorded pIC50 for CCCCCCCCCCCC(=O)O[C@@]12C[C@@H](C)[C@]34C=C(C)[C@H](OC(=O)NCc5ccc(F)cc5)[C@@]3(O)[C@H](O)C(CO)=C[C@H](C4=O)[C@@H]1C2(C)C , please?
OUTPUT: 4.93

INPUT: Fill in the blank: the reported pIC50 of CCCCCCCCCCCC(=O)O[C@@]12C[C@@H](C)[C@]34C=C(C)[C@H](O)[C@@]3(O)[C@H](O)C(CO)=C[C@H](C4=O)[C@@H]1C2(C)C is ____.
OUTPUT: 5.15
